Known pIC50 of a selection of compounds
- TARGET_DESC: recombinant DYRK1A kinase (Homo sapiens (Human))
- MEASUREMENT_PROTOCOL: DYRK1A kinase assay (Ser/Thr 18 peptide Z-lyte FRET)
- CONDITION_DETAILS: DYRK1A kinase activity, Z-lyte Ser/Thr 18 peptide, 15 μM ATP; method text calls the value IC50; read-out: EC50 (the source's name)
- Protocol: Representative compounds were screened using the assay procedure for DYRK1A kinase activity as described below. Each compound was dissolved in DMSO as a 10 mM stock and used to prepare compound source plates. […] The Emission ratio (Em) was calculated as a ratio of the coumarin (C) emission signal (at 445 nm)/Fluorescein (F) emission signal (at 520 nm). The percent phosphorylation was then calculated using the following formula: [1−((Em ratio X F100%)-C100%)/((C0%-C100%) +(Em ratio X (F100%−F0%)))]. […]
Notebook: values listed as pIC50 are -log10 of the concentration (mol/L).

INSERT INTO measurements (structure_as_smiles, experimental_result) VALUES
  ('COc1nc(N[C@@H]2CCN(C(C)=O)CC2(F)F)nn2ccc(-c3ccc4nnn(C(C)C)c4c3)c12', 8.85),
  ('COc1nc(N[C@@H]2CN(C3COC3)C[C@@H]2F)nn2ccc(-c3ccc4nccnc4c3)c12', 8.57),
  ('CCN1CC[C@@H](Nc2nc(OC)c3c(-c4ccc5ncnn5c4)ccn3n2)C(F)(F)C1', 8.19);

Now consider a different compound.
Entry COc1nc(N[C@H]2C[C@@](C)(O)C2)nn2ccc(-c3cc4ncccc4[nH]3)c12 , pIC50 reported as 7.20

---

The following compounds are shown together with reported IC50 values.
- TARGET_DESC: recombinant DYRK1A kinase (Homo sapiens (Human), UniProt Q13627)
- MEASUREMENT_PROTOCOL: DYRK1A kinase assay (Ser/Thr 18 peptide Z-lyte FRET)
- CONDITION_DETAILS: DYRK1A kinase activity, Z-lyte Ser/Thr 18 peptide, 15 μM ATP; method text calls the value IC50; read-out: EC50 (the source's name)
Entry rule: numbers only, all in nM.

INSERT INTO assay_data (structure_as_smiles, readout_label, experimental_result) VALUES
  ('COc1nc(N[C@H]2CCN(CC(C)(C)O)C[C@H]2F)nn2ccc(-c3ccc4ncccc4c3)c12', 'IC50', 4.5),
  ('COc1nc(N[C@@H]2CCN(C)C[C@@H]2F)nn2ccc(-c3cnc4nccn4c3)c12', 'IC50', 4.8),
  ('COc1nc(N[C@H]2C[C@@](C)(NC(C)=O)C2)nn2ccc(-c3cc(F)c4nnn(CC(F)F)c4c3)c12', 'IC50', 1.6);

The compound listed as COc1nc(NC2CCCCC2)nn2ccc(-c3cnc4nccn4c3)c12 shows IC50 equal to 1.5

---

- TARGET_DESC: recombinant DYRK1A kinase (Homo sapiens (Human), UniProt Q13627)
- MEASUREMENT_PROTOCOL: DYRK1A kinase assay (Ser/Thr 18 peptide Z-lyte FRET)
- CONDITION_DETAILS: DYRK1A kinase activity, Z-lyte Ser/Thr 18 peptide, 15 μM ATP; method text calls the value IC50; read-out: EC50 (the source's name)
READOUT_LABEL: IC50 (nM)
State the answer as a number, implicitly in nM.

Some solved entries appear below for comparison.
INSERT INTO measurements (structure_as_smiles, units_label, experimental_result) VALUES
  ('COc1nc(N[C@H]2CC[C@@](C)(O)CC2)nn2ccc(-c3cc(F)c4nnn(CC(F)F)c4c3)c12', 'nM', 10.9),
  ('COc1nc(N[C@@H]2CCN(C3COC3)CC2(F)F)nn2ccc(-c3cc(F)c4nc(C)n(C(C)C)c4c3)c12', 'nM', 1.6),
  ('COc1nc(N[C@H]2CCN(CC(C)(C)O)C[C@H]2F)nn2ccc(-c3ccc4nnn(CC(F)F)c4c3)c12', 'nM', 1.1);

For the next question, use this molecule.
Data point: COc1nc(N[C@H]2CC[C@@H](C(C)(C)O)CC2)nn2ccc(-c3ccc4nccnc4c3)c12 ; IC50 = 9.3
